Molecular target: Muscarinic acetylcholine receptor M1 (Homo sapiens)
Test: Cholinergic receptor muscarinic 1 (CHRM1) small molecule antagonists, cell-based qHTS assay (AID 1963588); further: nearly all actives have a fitted effect of over 40% in size; further: potency means the concentration at half of the fitted maximal effect
Settings: CHRM1-CHO antagonist mode, calcium flux fluorescence; series mostly up to 61.5 µM
Inconclusive results are not listed. Activity calls are given as the source filed them. The call rests on the fitted dose curve.
REPORTED_PROPERTY: Potency

{"MOLECULE": "O=C1CCC(C2CCCCC2)CC1", "Potency": "inactive"}
{"MOLECULE": "C=C1CC[C@H]2O[C@]2(C)CC[C@@H]2[C@@H]1CC2(C)C", "Potency": "inactive"}
{"MOLECULE": "O=C1c2ccccc2C(=O)N1CO", "Potency": "inactive"}
{"MOLECULE": "CCCCCCCCCCOS(=O)(=O)O", "Potency": "inactive"}
{"MOLECULE": "C=CC(C)(C)O", "Potency": "inactive"}

For reference, reported Potency for `CCCCS` stands at inactive

For reference, reported Potency for `CO[C@@H]1[C@@H](OC(N)=O)[C@@H](O)[C@H](Oc2ccc3c(O)c(NC(=O)c4ccc(O)c(CC=C(C)C)c4)c(=O)oc3c2C)OC1(C)C` stands at inactive

For reference, reported Potency for `Cc1cccc2sc(N)nc12` stands at inactive

* * *

Target: Muscarinic acetylcholine receptor M1 (Homo sapiens) (UniProt P11229)
Sequence (P11229 whole entry, looked up): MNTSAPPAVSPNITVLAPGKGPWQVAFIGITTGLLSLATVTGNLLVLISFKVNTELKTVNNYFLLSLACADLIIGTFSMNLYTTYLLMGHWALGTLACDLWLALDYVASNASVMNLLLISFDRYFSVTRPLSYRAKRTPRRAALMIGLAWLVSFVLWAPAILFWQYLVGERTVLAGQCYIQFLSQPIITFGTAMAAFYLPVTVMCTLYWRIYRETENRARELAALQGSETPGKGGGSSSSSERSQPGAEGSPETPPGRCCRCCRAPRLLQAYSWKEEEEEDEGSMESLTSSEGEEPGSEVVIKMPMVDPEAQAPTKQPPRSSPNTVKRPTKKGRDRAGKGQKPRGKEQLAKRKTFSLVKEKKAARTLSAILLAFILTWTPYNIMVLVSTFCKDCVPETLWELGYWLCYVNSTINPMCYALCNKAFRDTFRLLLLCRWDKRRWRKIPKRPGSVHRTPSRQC
Test: Cholinergic receptor muscarinic 1 (CHRM1) small molecule antagonists, cell-based qHTS assay (AID 1963588); further: nearly all actives have a fitted effect of over 40% in size
Conditions: CHRM1-CHO antagonist mode, calcium flux fluorescence; series mostly up to 61.5 µM
Excerpt: National Center for Advancing Translational Sciences [NCATS] Division of Preclinical Innovation [DPI] U.S. Environmental Protection Agency [EPA] National Institutes of Environmental Health Sciences [NIEHS] National Toxicology Program [NTP] U.S. Food and Drug Administration [FDA] The CHRM1 is a muscarinic receptor. […] The CHRM1-CHO Calcium Flux Assay is a homogeneous fluorescence-based assay for detecting the intracellular calcium level using FDSS kinetic plate reader system. […]
Results filed as inconclusive are left out. Activity calls are given as the source filed them. Calls come from the whole dose curve.
Respond using exactly one of the listed classes: Yes = active, No = inactive

# example entries with known answers
{"COMPOUND": "CN(CCOc1ccc(NS(C)(=O)=O)cc1)CCc1ccc(NS(C)(=O)=O)cc1", "DISCRETE_LABEL": "Yes"}
{"COMPOUND": "CC(=O)CC(c1ccc([N+](=O)[O-])cc1)c1c(O)c2ccccc2oc1=O (stereo unspecified)", "DISCRETE_LABEL": "No"}
{"COMPOUND": "O=C(O)Cc1ccccc1Oc1ccc(Cl)cc1Cl", "DISCRETE_LABEL": "No"}
{"COMPOUND": "O=C(O)CCCC[P+](c1ccccc1)(c1ccccc1)c1ccccc1", "DISCRETE_LABEL": "No"}

Inquiry: I would be grateful if you could indicate the recorded call for `CN(C)CCC=C1c2ccccc2C=Cc2ccccc21` .
Reply text: No

Inquiry: I would be grateful if you could indicate the recorded call for `Cc1cc(O)c2c(c1)C(=O)c1cccc(O)c1C2=O` .
Reply text: No

Inquiry: I would be grateful if you could indicate the recorded call for `[O-][n+]1cccc(CO)c1` .
Reply text: No

Inquiry: I would be grateful if you could indicate the recorded call for `Cc1cc(-n2nc3ccc(Cl)cc3n2)c(O)c(C(C)(C)C)c1` .
Reply text: No

Inquiry: I would be grateful if you could indicate the recorded call for `Cc1ccc(-n2nc(C(C)(C)C)cc2NC(=O)Nc2ccc(OCCN3CCOCC3)c3ccccc23)cc1` .
Reply text: No

Inquiry: I would be grateful if you could indicate the recorded call for `N=C1N=C(N)c2ccccc21` .
Reply text: No

Inquiry: I would be grateful if you could indicate the recorded call for `NS(=O)(=O)c1cc(-c2nn[nH]n2)c(NCc2cccs2)cc1Cl` .
Reply text: No

* * *

Target: Gonadotropin-releasing hormone receptor (Homo sapiens) (UniProt P30968)
Sequence (P30968 whole entry, looked up): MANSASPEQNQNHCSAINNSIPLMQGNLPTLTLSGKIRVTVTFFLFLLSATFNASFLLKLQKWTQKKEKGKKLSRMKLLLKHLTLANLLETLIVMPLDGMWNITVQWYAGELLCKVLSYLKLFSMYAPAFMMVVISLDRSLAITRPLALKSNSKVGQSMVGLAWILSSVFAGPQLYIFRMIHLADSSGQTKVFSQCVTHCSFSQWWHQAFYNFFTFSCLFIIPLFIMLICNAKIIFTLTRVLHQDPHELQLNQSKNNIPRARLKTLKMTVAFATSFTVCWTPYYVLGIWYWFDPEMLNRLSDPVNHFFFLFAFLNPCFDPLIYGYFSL
Test: Human gonadotropin-releasing hormone receptor (GnRHR) small molecule agonists, calcium flux assay in GnRHR-HEK293 cells (AID 1920063); further: on the % scale 0 is the no-effect control and ±100 the full control effect; nearly all actives have a fitted effect of over 35% in size
Details: calcium flux fluorescence, agonist mode; series mostly up to 57.6 µM
Calls of active or inactive are those of the source. Calls follow the shape of the full dose curve.
REPORTED_PROPERTY: activity change

Here are 5 compounds together with their reported answers.
{"COMPOUND": "CCCCN(C)C", "MEASUREMENT_TARGET": "Gonadotropin-releasing hormone receptor (Homo sapiens) (UniProt P30968)", "activity change": "inactive"}
{"COMPOUND": "ClCCl", "MEASUREMENT_TARGET": "Gonadotropin-releasing hormone receptor (Homo sapiens) (UniProt P30968)", "activity change": "inactive"}
{"COMPOUND": "CC(=O)Oc1ccc(C2(c3ccc(OC(C)=O)cc3)C(=O)Nc3ccccc32)cc1", "MEASUREMENT_TARGET": "Gonadotropin-releasing hormone receptor (Homo sapiens) (UniProt P30968)", "activity change": "inactive"}
{"COMPOUND": "CC(=O)[C@H]1CC[C@H]2[C@@H]3C=CC4=CC(=O)CC[C@@]4(C)[C@@H]3CC[C@]12C", "MEASUREMENT_TARGET": "Gonadotropin-releasing hormone receptor (Homo sapiens) (UniProt P30968)", "activity change": "inactive"}
{"COMPOUND": "Cc1c(C(=O)NCCO)[n+](=O)c2ccccc2n1[O-]", "MEASUREMENT_TARGET": "Gonadotropin-releasing hormone receptor (Homo sapiens) (UniProt P30968)", "activity change": "inactive"}

For reference, reported activity change for `O=C(c1ccc(F)cc1)C1CCN(CCn2c(=O)[nH]c3ccccc3c2=O)CC1` stands at inactive

For reference, reported activity change for CCCCCCC(O)CO (configuration not stated) stands at inactive

For reference, reported activity change for `CC(C)=CCC/C(C)=C/COC=O` stands at inactive

For reference, reported activity change for `CCCCCC#CC(=O)OC` stands at inactive

For reference, reported activity change for `Cn1cnc2ncnc(N)c21` stands at inactive

For reference, reported activity change for COc1ccccc1OCC(O)CN1CCN(CC(=O)Nc2c(C)cccc2C)CC1 (configuration not stated) stands at inactive

For reference, reported activity change for `Cc1ccccc1CCO` stands at inactive

For reference, reported activity change for N[C@H]1C(O)O[C@H](CO)[C@H](O)[C@@H]1O (some centres not stated) stands at inactive

* * *

Overview of reported activity, negative = inhibition across a group of compounds:
Biological target: Muscarinic acetylcholine receptor M1 (Homo sapiens)
Assay: Cholinergic receptor muscarinic 1 (CHRM1) small molecule antagonists, cell-based qHTS assay (AID 1963588); further: nearly all actives have a fitted effect of over 40% in size; on activity, negative = inhibition: on the % scale 0 is the no-effect control and ±100 the full control effect
Conditions: CHRM1-CHO antagonist mode, calcium flux fluorescence; series mostly up to 61.5 µM
Text: National Center for Advancing Translational Sciences [NCATS] Division of Preclinical Innovation [DPI] U.S. Environmental Protection Agency [EPA] National Institutes of Environmental Health Sciences [NIEHS] National Toxicology Program [NTP] U.S. Food and Drug Administration [FDA] The CHRM1 is a muscarinic receptor. […] The CHRM1-CHO Calcium Flux Assay is a homogeneous fluorescence-based assay for detecting the intracellular calcium level using FDSS kinetic plate reader system. […]
Records with an inconclusive call do not appear. Activity calls are given as the source filed them. Calls come from the whole dose curve.

Here are 2 compounds together with their reported answers.
{"COMPOUND": "CCCCN1C=CN(C)C1", "REPORTED_PROPERTY": "activity, negative = inhibition", "MEASURED_RESULT": "0.644% [at 12.6 µM] (inactive)"}
{"COMPOUND": "COc1cc(C(C)C)ccc1C", "REPORTED_PROPERTY": "activity, negative = inhibition", "MEASURED_RESULT": "8.74% [at 12.6 µM] (inactive)"}

For reference, reported activity, negative = inhibition for `Cc1cccn2c(=O)c(-c3nnn[nH]3)cnc12` stands at -2.73% [at 12.6 µM] (inactive)

For reference, reported activity, negative = inhibition for `CCCCCCCCCCCCCCCCCO` stands at -16.4% [at 12.6 µM] (inactive)

For reference, reported activity, negative = inhibition for `O=C(Nc1cccc(C2=NCCN2)c1)Nc1cccc(C2=NCCN2)c1` stands at -4.67% [at 12.6 µM] (inactive)

For reference, reported activity, negative = inhibition for `[O]=[Bi]` stands at 3.36% [at 5.58 µM] (inactive)

For reference, reported activity, negative = inhibition for CC(NN)c1ccccc1 (stereo unspecified) stands at 10.3% [at 12.6 µM] (inactive)

For reference, reported activity, negative = inhibition for `CCCCCCCCCCCCCCN(C)C` stands at 5.47% [at 12.6 µM] (inactive)

For reference, reported activity, negative = inhibition for `O=C(O)CNCC(=O)O` stands at -11.9% [at 5.58 µM] (inactive)

For reference, reported activity, negative = inhibition for COC(=O)C1CC(=O)C(C(=O)OC)CC1=O (stereo unspecified) stands at 62.7% [at 5.58 µM] (inactive)

For reference, reported activity, negative = inhibition for `C=CC(=C)CC/C=C(\C)CCC=C(C)C` stands at -6.65% [at 12.6 µM] (inactive)
